test: Stability test under high temperature conditions (60° C., 5 days), related substance; type: physicochemical; conditions: 60° C., day 5, average of 5 groups
Measured Day 5: Related substance, listed per entry for reference.
reported.metric: Day 5: Related substance (%)

compound="NC(=O)CN1C[C@H](O)CC1=O [Example 1]" assay_result=0.35
compound="NC(=O)CN1C[C@H](O)CC1=O [Example 5]" assay_result=0.37
compound="NC(=O)CN1C[C@H](O)CC1=O [Example 3]" assay_result=0.36
compound="NC(=O)CN1C[C@H](O)CC1=O [Example 6]" assay_result=0.37
compound="NC(=O)CN1C[C@H](O)CC1=O [Example 7]" assay_result=0.33
compound="NC(=O)CN1C[C@H](O)CC1=O [Example 4]" assay_result=0.39
